Assay: in vitro
Settings: human, Picorana CC50
quantity: CC50 (µg/mL)
Please give a number only; it is taken to be in µg/mL.

Below, each entry is followed by its recorded CC50 result.
compound="CCOC(=O)OC12Oc3cc(C(C)C)ccc3C1(OC(=O)OCC)C(=O)c1ccccc12 (centres unmarked)" result_value=9.68
compound="COc1sccc1C(=O)NC12C(=O)c3c(N)cccc3C1(O)Oc1cc(C(C)C)ccc12 (centres unmarked)" result_value=4.24
compound="Cc1onc(-c2c(F)cccc2Cl)c1C(=O)NC12C(=O)c3c(N)cccc3C1(O)Oc1cc(C(C)C)ccc12 (centres unmarked)" result_value=24.1
compound="COC(=O)c1ccc2c(c1)C1(O)C(=O)c3ccccc3C1(O)O2 (centres unmarked)" result_value=45.1
compound="CC(=O)NC12C(=O)c3c(Br)cccc3C1(O)Oc1cc(C(C)C)ccc12 (centres unmarked)" result_value=40

Proceed to the following item.
**Query** CC50 lookup needed for O=C1c2ccccc2C2(O)Oc3c(ccc4c3CCCC4)C12O (centres unmarked) , thanks.
**Result** 8.9

###

System: Coxsackie A16
Test: Multicycle CPE reduction assay, Coxsackie A16
Type: cell-based
Settings: MRC5; incubation at 37° C. in MRC-5 cells
quantity: EC50 (µM)
# output: bare number, implied unit µM

**Query** Entry CC(C)c1ccc2c(c1)OC1(O)c3ccccc3C(=O)C21O (stereo not shown) has what EC50?
**Result** 0.09

###

# Lookup of reported EC50 keyed by entry
System: Rhino 45
Assay: Multicycle CPE reduction assay, Rhino 45
Type: cell-based
Details: HeLa, incubation at 37° C. in HeLa cells
Supply the numeric figure in µM, leaving out any unit text.

compound="CC(=O)NC12C(=O)c3ccccc3C1(O)Oc1cc(C(C)C)ccc12 (stereo not drawn) [Example 66]" result_value=1.7

**Query** Record request: EC50 value, item CC(C)c1ccc2c(c1)OC1(O)c3ccccc3C(=O)C21O (stereo not drawn) [Example 10]
**Result** 3.4

###

Assay: in vitro
Settings: human, Picorana CC50
quantity: CC50 (µg/mL)
The answer is to be given in µg/mL; state only the numeric part.

Solved entries:
compound="CC(C)c1ccc2c(c1)OC1(O)c3cccc(N)c3C(=O)C21NC(=O)c1ccc(Cl)cc1 (stereo not shown)" result_value=9.02
compound="CC(C)(C)c1ccc2c(c1)C1(O)C(=O)c3ccccc3C1(O)O2 (stereo not shown)" result_value=7.93
compound="O=C1c2ccccc2C2(O)Oc3cc4ccccc4cc3C12O (stereo not shown)" result_value=8.57
compound="CC(C)c1ccc2c(c1)OC1(O)c3ccccc3C(=O)C21NC(=O)c1cccnc1 (stereo not shown)" result_value=42.8
compound="C=CC(=O)OC12Oc3cc(C(C)C)ccc3C1(O)C(=O)c1ccccc12 (stereo not shown)" result_value=46.7

**Query** Data request, read-out CC50, for CCCCCCCC(=O)NC12C(=O)c3ccccc3C1(O)Oc1cc(C(C)C)ccc12 (stereo not shown)
**Result** 34

###

Assay: in vitro
Conditions: human, Picorana CC50
Rule: measured CC50 below 40 µg/mL gets yes; anything equal to or greater than 40 µg/mL gets no.

compound="CC(C)c1ccc2c(c1)OC1(O)c3cccnc3C(=O)C21O (centres unmarked)" class_name=no
compound="CC(C)c1ccc2c(c1)OC1(O)c3ccccc3C(=O)C21NC(=O)[C@@H](Cc1ccccc1)NC(=O)OC(C)(C)C (some centres unmarked)" class_name=yes
compound="CCN(CC)C(=O)OC12Oc3cc(C(C)C)ccc3C1(O)C(=O)c1ccccc12 (centres unmarked)" class_name=no

**Query** Is 40 µg/mL strictly greater than the compound's reported CC50? compound: CC(C)c1ccc2c(c1)OC1(O)c3ccc(N4CCOCC4)cc3C(=O)C21O (centres unmarked)
**Result** yes

**Query** Field: below-cutoff. Rule: recorded CC50 strictly less than 40 µg/mL. Subject: CC(=O)NC12C(=O)c3ccccc3C1(O)Oc1cc(C(C)C)ccc12 (centres unmarked)
**Result** no

**Query** Is 40 µg/mL strictly greater than the compound's reported CC50? compound: CC(C)c1ccc2c(c1)OC1(OCCO)c3ccccc3C(=O)C21O (centres unmarked)
**Result** yes

**Query** Does this compound meet the criterion CC50 < 40 µg/mL? CCCC(=O)NC12C(=O)c3c(N)cccc3C1(O)Oc1cc(C(C)C)ccc12 (centres unmarked)
**Result** yes

**Query** In plain terms, does CC(C)c1ccc2c(c1)OC1(O)c3cccc(N)c3C(=O)C21NC(=O)c1cnc2ccccc2n1 (centres unmarked) come in under 40 µg/mL for CC50?
**Result** yes

###

Assay: in vitro
Conditions: human, Picorana CC50
Entries and their log10 of CC50
Kindly note that the scale is log10 and the underlying CC50 is in µg/mL.

Example results:
compound="CC(C)c1ccc2c(c1)OC1(O)c3cccc(N)c3C(=O)C21NC(=O)c1ccc(C#N)cn1 (centres unmarked)" result_value=0.93
compound="CC(=O)OC12Oc3cc(C(C)C)ccc3C1(OC(C)=O)C(=O)c1c([N+](=O)[O-])cccc12 (centres unmarked)" result_value=1.66
compound="CCCCc1cn(C23C(=O)c4c(N)cccc4C2(O)Oc2cc(C(C)C)ccc23)nn1 (centres unmarked)" result_value=1.69
compound="CC(C)c1ccc2c(c1)OC1(O)c3cccc(N)c3C(=O)C21NC(=O)c1ccccc1 (centres unmarked)" result_value=0.96
compound="Cc1ccc(C(=O)NC23C(=O)c4c(N)cccc4C2(O)Oc2cc(C(C)C)ccc23)cc1 (centres unmarked)" result_value=0.92
compound="CC(C)c1ccc2c(c1)OC1(O)c3cccc(N(C)C)c3C(=O)C21O (centres unmarked)" result_value=0.18
compound="CC(C)c1ccc2c(c1)OC1(O)c3cccc(N)c3C(=O)C21NC(=O)c1c2ccccc2nc2ccccc12 (centres unmarked)" result_value=0.90
compound="CC(C)c1ccc2c(c1)OC1(O)c3cccc(N)c3C(=O)C21NC(=O)c1ccccn1 (centres unmarked)" result_value=1.54
compound="CC(C)c1ccc2c(c1)OC1(O)c3cc(F)c(F)cc3C(=O)C21O (centres unmarked)" result_value=0.95
compound="CCOC(=O)OC12Oc3cc(C(C)C)ccc3C1(NC(C)=O)C(=O)c1c(N)cccc12 (centres unmarked)" result_value=1.57

**Query** I am curious: what log10 of CC50 value has been reported for CCOC(=O)OC12Oc3cc(C(C)C)ccc3C1(O)C(=O)c1ccccc12 (centres unmarked) ?
**Result** 0.98

**Query** Endpoint output: log10 of CC50 of COC(=O)Nc1cccc2c1C(=O)C1(O)c3ccc(C(C)C)cc3OC21O (centres unmarked) . Value?
**Result** 0.96

**Query** Entry CC(C)c1ccc2c(c1)OC1(O)c3cccc(N)c3C(=O)C21NC(=O)C1c2ccccc2Oc2ccccc21 (centres unmarked) has what log10 of CC50?
**Result** 0.80

###

Assay: in vitro
Conditions: human
CC50 reference
The reply should contain only the number, in µg/mL.

molecule="CC(C)c1ccc2c(c1)OC1(O)c3cccc(N)c3C(=O)C21NC(=O)C(C)(C)C (centres unmarked)" unit_spec=µg/mL result_value=43.1
molecule="CCC(=O)NC12C(=O)c3c(N)cccc3C1(O)Oc1cc(C(C)C)ccc12 (centres unmarked)" unit_spec=µg/mL result_value=58.1
molecule="CC(C)c1ccc2c(c1)OC1(O)c3ccccc3C(=O)C21NC(=O)c1cc(-c2ccccc2)n[nH]1 (centres unmarked)" unit_spec=µg/mL result_value=4.51
molecule="CC(C)c1ccc2c(c1)OC1(O)c3cccc(N)c3C(=O)C21NC(=O)c1cccnc1 (centres unmarked)" unit_spec=µg/mL result_value=27.9
molecule="CC(C)c1ccc2c(c1)OC1(O)c3cccc(N)c3C(=O)C21NC(=O)c1ccncc1 (centres unmarked)" unit_spec=µg/mL result_value=43
molecule="CC(C)c1ccc2c(c1)OC1(O)c3cccc(N)c3C(=O)C21NC(=O)c1nc2cc(F)ccc2[nH]1 (centres unmarked)" unit_spec=µg/mL result_value=4.51
molecule="CC(C)c1ccc2c(c1)OC1(O)c3cccc(N)c3C(=O)C21NC(=O)c1cc2ccccc2[nH]1 (centres unmarked)" unit_spec=µg/mL result_value=4.4
molecule="CCCC(=O)NC12C(=O)c3c(N)cccc3C1(O)Oc1cc(C(C)C)ccc12 (centres unmarked)" unit_spec=µg/mL result_value=21.7

**Query** Look up CC50: CC(C)c1ccc2c(c1)OC1(O)c3cccc(N)c3C(=O)C21NC(=O)c1ccc(Cl)cc1 (centres unmarked)
**Result** 7.81

**Query** Dear colleague, I am looking for the recorded CC50 of the following molecule: COC(=O)OC12Oc3cc(C(C)C)ccc3C1(NC(C)=O)C(=O)c1c(N)cccc12 (centres unmarked)
**Result** 48.8

**Query** Param item = COc1c(C(=O)NC23C(=O)c4c(N)cccc4C2(O)Oc2cc(C(C)C)ccc23)cnc2ccc(F)cc12 (centres unmarked) ; retrieve measured CC50.
**Result** 0.86

**Query** Given the molecule CC(C)c1ccc2c(c1)OC1(O)c3cccc(N)c3C(=O)C21NC(=O)c1cccc(Cl)c1 (centres unmarked) , what is its reported CC50?
**Result** 5.52

**Query** Could you share which CC50 value was measured for CCCCOC(=O)OC12Oc3cc(C(C)C)ccc3C1(NC(C)=O)C(=O)c1c(N)cccc12 (centres unmarked) ?
**Result** 23.1

Data origin, for the record: patent US9890133B2
